Assay: recombinant UMI read abundance after kanamycin selection (control-corrected) (log10(CPM+1)); higher = more efficient recombination; extreme values may be limits of the assay; sequences stand for … in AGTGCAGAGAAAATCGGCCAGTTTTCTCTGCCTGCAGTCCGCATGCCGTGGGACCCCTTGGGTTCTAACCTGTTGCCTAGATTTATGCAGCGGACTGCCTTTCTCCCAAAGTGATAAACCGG…AGGTTGGTTTCACT; site = the 11-nt donor
The following sequences are shown together with reported recombinant UMI read abundance (log10) values.

A selection of reference data follows.
# seq string, recombinant UMI read abundance (log10)
data = [
    ("CTAGCTGCATGGACCGGTTTTCCCGGTAATCCGTATTTGTG (site GTAGCTGCTCA)", 0.0102),
    ("TACTCCTCATGGACCGGTTTTCCCGGTAATCCGTATTTGCC (site AACTCCTCTGG)", 0.934),
    ("GTACGTACATGGACCGGTTTTCCCGGTAATCCGTATTTGAC (site GTATGTACTGT)", 0.00913),
]

Which value of recombinant UMI read abundance (log10) has been reported for GATTGGACATGGACCGGTTTTCCCGGTAATCCGTATTTGAG (site GATTGGACTCT) in the records?
1.33

Which value of recombinant UMI read abundance (log10) has been reported for CCCTCAACATGGACCGGTTTTCCCGGTAATCCGTATTTGCA (site CCCTCAACTTG) in the records?
0.377

Which value of recombinant UMI read abundance (log10) has been reported for TTCTCCACATGGACCGGTTTTCCCGGTAATCCGTATTTGGA (site TTCTCCACTTC) in the records?
0.00322

Which value of recombinant UMI read abundance (log10) has been reported for CGATTTTCATGGACCGGTTTTCCCGGTAATCCGTATTTGCT (site CGATCATCTAG) in the records?
0

Which value of recombinant UMI read abundance (log10) has been reported for GTAGTCGCATGGACCGGTTTTCCCGGTAATCCGTATTTGCG (site GTAGTCGCTGG) in the records?
1.34

Which value of recombinant UMI read abundance (log10) has been reported for AACTAGACATGGACCGGTTTTCCCGGTAATCCGTATTTGGG (site AGCTAGACTCC) in the records?
0.0187

Which value of recombinant UMI read abundance (log10) has been reported for AGGCTCCCATGGACCGGTTTTCCCGGTAATCCGTATTTGTG (site AGGGTCCCTCA) in the records?
0.0171

Which value of recombinant UMI read abundance (log10) has been reported for CTAGTTTCATGGACCGGTTTTCCCGGTAATCCGTATTTGAA (site CTAGTTTCTTT) in the records?
1.85

Which value of recombinant UMI read abundance (log10) has been reported for TGGCCGTCATGGACCGGTTTTCCCGGTAATCCGTATTTGGC (site TGGCCGGCTGC) in the records?
0

Which value of recombinant UMI read abundance (log10) has been reported for AGGTCCCCATGGACCGGTTTTCCCGGTAATCCGTATTTGTG (site AGGTGCCCTCA) in the records?
0.0373

Which value of recombinant UMI read abundance (log10) has been reported for ATCAAGGCATGGACCGGTTTTCCCGGTAATCCGTATTTGTC (site ATCAAGGCTGA) in the records?
1.53

Which value of recombinant UMI read abundance (log10) has been reported for GTAGTATCATGGACCGGTTTTCCCGGTAATCCGTATTTGAC (site GTAGTATCTGT) in the records?
3.41

Which value of recombinant UMI read abundance (log10) has been reported for AGGTCCTCATGGACCGGTTTTCCCGGTAATCCGTATTTGGG (site AGGTCCTCTCC) in the records?
0.0176

Which value of recombinant UMI read abundance (log10) has been reported for AATGTGACATGGACCGGTTTTCCCGGTAATCCGTATTTGCT (site AATGTAACTAG) in the records?
2.04

Which value of recombinant UMI read abundance (log10) has been reported for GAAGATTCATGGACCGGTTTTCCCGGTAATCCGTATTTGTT (site GAAGAGTCTAA) in the records?
0.0122

====

Assay: recombinant barcode read abundance after kanamycin selection (control-corrected) (log10(CPM+1)); higher = more efficient recombination; sequences stand for … in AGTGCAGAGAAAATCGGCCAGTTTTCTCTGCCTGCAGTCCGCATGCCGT…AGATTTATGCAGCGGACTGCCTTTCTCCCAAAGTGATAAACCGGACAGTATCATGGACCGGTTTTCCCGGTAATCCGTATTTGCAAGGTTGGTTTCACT; site = the 11-nt target
The following sequences are shown together with reported recombinant barcode read abundance (log10) values.
Respond numerically, and do not add a unit to the figure.

A selection of reference data follows.
# seq string, value measured
rows = [
    ("GGTCAACCTTGGGTTCTAACCTGTTGCGG (site GGTCAACCTCC)", 2.5),
    ("CCACGGTCTTGGGTTCTAACCTGTTGCCT (site CCACTGTCTAG)", 0.033),
    ("GCACAAGCTTGGGTTCTAACCTGTTGCCT (site GCTCTAGCTAG)", 0.091),
    ("AACTTCACTTGGGTTCTAACCTGTTGCCT (site AACTTCTCTAG)", 0.0193),
    ("TAGAGAGCTTGGGTTCTAACCTGTTGCGG (site TATAGAGCTCC)", 0.356),
]

Which value of recombinant barcode read abundance (log10) has been reported for TGTCGAGCTTGGGTTCTAACCTGTTGCGG (site TGTCGAGCTCC) in the records?
0.977

Which value of recombinant barcode read abundance (log10) has been reported for ATTGCTCCTTGGGTTCTAACCTGTTGCCT (site ATTGCTCCTAG) in the records?
0.416

Which value of recombinant barcode read abundance (log10) has been reported for CCTAAGACTTGGGTTCTAACCTGTTGCCT (site CCTAAGACTTG) in the records?
0.0542

Which value of recombinant barcode read abundance (log10) has been reported for CAGATGACTTGGGTTCTAACCTGTTGCCT (site CAAATTACTAG) in the records?
0.393

Which value of recombinant barcode read abundance (log10) has been reported for AGCAGGTCTTGGGTTCTAACCTGTTGCCT (site ATCAGGTCTAG) in the records?
0.0118

====

Assay: recombinant UMI read abundance after kanamycin selection (control-corrected) (log10(CPM+1)); higher = more efficient recombination; extreme values may be limits of the assay; sequences stand for … in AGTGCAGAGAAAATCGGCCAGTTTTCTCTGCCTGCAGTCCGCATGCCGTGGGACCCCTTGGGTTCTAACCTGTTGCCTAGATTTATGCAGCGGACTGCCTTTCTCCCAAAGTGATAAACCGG…AGGTTGGTTTCACT; site = the 11-nt donor
measured parameter: recombinant UMI read abundance (log10)
Respond numerically, and do not add a unit to the figure.

A selection of reference data follows.
# seq string, recombinant UMI read abundance (log10)
data = [
    ("AGGTTCCCATGGACCGGTTTTCCCGGTAATCCGTATTTGAG (site AGGTTCCCTCC)", 0.0175),
    ("TGTACAGCATGGACCGGTTTTCCCGGTAATCCGTATTTGAC (site TGTACAGCTGT)", 1.75),
    ("TAAGTGCCATGGACCGGTTTTCCCGGTAATCCGTATTTGAC (site TAAGTGCCTGT)", 0.999),
]

Which value of recombinant UMI read abundance (log10) has been reported for CAATGCACATGGACCGGTTTTCCCGGTAATCCGTATTTGAA (site CAATGCCCTTT) in the records?
0

Which value of recombinant UMI read abundance (log10) has been reported for ACAGCATCATGGACCGGTTTTCCCGGTAATCCGTATTTGCG (site ACAGTATCTTG) in the records?
0

Which value of recombinant UMI read abundance (log10) has been reported for CTCTCCACATGGACCGGTTTTCCCGGTAATCCGTATTTGCT (site CTCTCCACTAG) in the records?
2.34

====

Assay: recombinant UMI read abundance after kanamycin selection (control-corrected) (log10(CPM+1)); higher = more efficient recombination; extreme values may be limits of the assay; sequences stand for … in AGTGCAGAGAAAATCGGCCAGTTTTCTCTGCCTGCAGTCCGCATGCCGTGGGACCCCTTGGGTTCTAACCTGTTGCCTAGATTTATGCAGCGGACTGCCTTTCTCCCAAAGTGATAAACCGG…AGGTTGGTTTCACT; site = the 11-nt donor
measured parameter: recombinant UMI read abundance (log10)

A selection of reference data follows.
# seq string, recombinant UMI read abundance (log10)
rows = [
    ("GTCTATACATGGACCGGTTTTCCCGGTAATCCGTATTTGGA (site GTCTATACTTC)", 1.08),
    ("GTTTAGGCATGGACCGGTTTTCCCGGTAATCCGTATTTGCA (site GTTTAGGCTTG)", 2.03),
    ("TGGTAGCCATGGACCGGTTTTCCCGGTAATCCGTATTTGTT (site TGGTAGCCTAA)", 0.256),
    ("CCCTAGCCATGGACCGGTTTTCCCGGTAATCCGTATTTGCC (site CCCTAGACTGG)", 0),
    ("TACTTTACATGGACCGGTTTTCCCGGTAATCCGTATTTGCT (site TACTTCACTAG)", 1.36),
]

Which value of recombinant UMI read abundance (log10) has been reported for CGTTTGTCATGGACCGGTTTTCCCGGTAATCCGTATTTGCT (site CGTTTGGCTAG) in the records?
0

Which value of recombinant UMI read abundance (log10) has been reported for ATAGGTGCATGGACCGGTTTTCCCGGTAATCCGTATTTGGC (site ATAGGTGCTGC) in the records?
3.17

Which value of recombinant UMI read abundance (log10) has been reported for ACACATCCATGGACCGGTTTTCCCGGTAATCCGTATTTGAT (site ACACATCCTGT) in the records?
0

Which value of recombinant UMI read abundance (log10) has been reported for ATCTAGACATGGACCGGTTTTCCCGGTAATCCGTATTTGAG (site ATCTAGACTCT) in the records?
1.31
